Data origin: PubChem BioAssay AID2060609

Test system: 855422-203-R-J1-PDC complex spheroids, viability;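 further: spheroids exposed to drugs for seven days before readout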
Test: Anticancer human tumor 855422-203-R-J1-PDC patient-derived bladder carcinoma cell line growth inhibition [CLK]; active means viability on the fitted dose curve at most 10% of control; inactive means the rest
Settings: second compound 0.0316 µM; first compound 3.16 µM
Excerpt: A high-throughput screen of multi-cell type tumor spheroids was designed to identify active combinations of […] and targeted small molecules. Complex spheroids include a stromal component modeled by human endothelial cells (HUVEC) and fibroblasts modeled by human mesenchymal stem cells (MSCs). […] Compounds. […] If the clinical Cmax for an agent had not been determined, the highest concentration tested was 10 microM. […]
Outcomes: y = active, n = inactive

>  <compound>
CC1COCCN1c1cc(C2(S(C)(=N)=O)CC2)nc(-c2ccnc3[nH]ccc23)n1 (stereo not given) + CNC(=O)c1ccc(Nc2nc(OC3CCCC3)c3c(-c4ccc5nc(C)oc5c4)c[nH]c3n2)c(OC)c1

>  <discrete label>
n

$$$$
>  <compound>
C=C(F)C(=O)N1CCN(c2nc(OCC3CCCN3C)nc3c2CCN(c2cccc4cccc(Cl)c24)C3)CC1CC#N (stereo not given) + CN1CCN(c2cc(C(=O)Nc3cc4cc(-c5cnn(C)c5)ccc4cn3)ccn2)CC1

>  <discrete label>
n

$$$$
>  <compound>
C=C(F)C(=O)N1CCN(c2nc(OCC3CCCN3C)nc3c2CCN(c2cccc4cccc(Cl)c24)C3)CC1CC#N (stereo not given) + CNC(=O)c1ccc(Nc2nc(OC3CCCC3)c3c(-c4ccc5nc(C)oc5c4)c[nH]c3n2)c(OC)c1

>  <discrete label>
n

$$$$
>  <compound>
Nc1ccn(C2OC(CO)C(O)C2(F)F)c(=O)n1 (stereo not given) + CNC(=O)c1ccc(Nc2nc(OC3CCCC3)c3c(-c4ccc5nc(C)oc5c4)c[nH]c3n2)c(OC)c1

>  <discrete label>
y

$$$$
>  <compound>
COc1ccc([C@@H](O)c2cc(-c3ncnc4cc(N5CCOCC5)ccc34)c(F)cc2Cl)nn1 + CNC(=O)c1ccc(Nc2nc(OC3CCCC3)c3c(-c4ccc5nc(C)oc5c4)c[nH]c3n2)c(OC)c1

>  <discrete label>
n

$$$$
